# protocol_text: Human HepG2 cell viability assay in 384 well format
# Format: toxicity, cell-based
# Set-up: dose 125 nL, time 70.5 hour; concentration not given beside the values
# condition_context: HepG2 cells, read-out: Inhibition
value_type: cytotoxicity at 70.5 h (%)

molecule=O=S(=O)(Nc1ccon1)c1cc(Cl)cc2c1OCC2 data_value=1.46
molecule="COCCC(=O)N1CCCC([C@@H]2C[C@H](C(F)F)n3ncnc3N2)C1 (stereo partly drawn)" data_value=-4.06
molecule=O=C(c1cnccn1)N1CCN(CC2CC2)c2ncccc2C1 data_value=5.88
molecule=Cc1cnc(N2CCN3C[C@H](OCc4ccccn4)C[C@H]3C2)nc1 data_value=-2.63
molecule="Cc1ncc2c(c1CNC(=O)C1(C)CCCCO1)CCNC2 (stereo not drawn)" data_value=0.49
molecule="CN(Cc1cc[nH]n1)C(C(=O)O)c1ccc(Cl)cc1 (stereo not drawn)" data_value=-4.85
molecule=O=C(C[C@@H]1COC[C@H]2CN(Cc3ccc(F)cc3)C[C@@H]12)N1CCCCO1 data_value=-14.5
molecule=O=C(N[C@@H]1CN(Cc2ccc(F)cc2)C[C@H]1O)c1cscn1 data_value=-1.52
molecule=CNC(=O)[C@@]12CCO[C@@H]1CCN(S(=O)(=O)c1cccnc1)C2 data_value=-13.7
molecule=COc1ccc(-c2cc(CNc3ncnc4c3CCNCC4)no2)cc1 data_value=23.4
molecule="CCn1nc(C(=O)N2CCCC2c2noc(C)n2)ccc1=O (stereo not drawn)" data_value=-3.84
molecule=Cc1cc(C(=O)N2CC[C@]3(C[C@@H](OCc4ccccn4)CO3)C2)c(C)o1 data_value=17.1
molecule=CC(=O)c1c(N(C)C)ccnc1C(F)(F)F data_value=-6.51
molecule=c1cncc(O[C@@H]2CC[C@H]3[C@H]2OCCN3C2CCCC2)c1 data_value=3.46
molecule=Cc1ncccc1C(=O)Nc1cccc(OCC(F)F)n1 data_value=-8.26
molecule="Cc1ccc(CN2Cc3nccn3CC(CN(C)C)C2)s1 (stereo not drawn)" data_value=-7.65
molecule="Cc1nc2n(n1)CC(Nc1nc(C(F)(F)F)nc3ccccc13)CC2 (stereo not drawn)" data_value=-1.15
molecule="CC(NC(=O)N(C)Cc1ccncc1)c1nncn1C (stereo not drawn)" data_value=-4.45
molecule="Fc1ccccc1OCCc1cc(C2CCNC2)n[nH]1 (stereo not drawn)" data_value=-4.09
molecule=Cc1csc(CN2CC[C@H]3O[C@H](C(=O)Nc4cccnc4)CC[C@H]32)n1 data_value=8.96
molecule=CCN(Cc1ccc2c(c1)OCO2)C(=O)c1ccc(=O)n(C)c1 data_value=-0.838
molecule="CN1CCCC(c2ccnc(C(=O)NCC3CC3)c2)C1 (stereo not drawn)" data_value=-2.35
molecule="Cc1nc2ccccc2nc1CN(C)C1CCCN(c2cccnn2)C1 (stereo not drawn)" data_value=4.32
molecule=Cc1ncncc1-c1ccnc(N)n1 data_value=-2.72
molecule=CCC(=O)Nc1nnc(CCOc2cccc(OC)c2)s1 data_value=6.47
molecule=Cc1occc(=O)c1OCC(=O)N1CCc2ccccc2C1 data_value=7.13
molecule=COc1cccc(CN2CCC3(CC2)CCN(c2ncc(F)cn2)C3)c1 data_value=0.909
molecule=CS(=O)(=O)N1CCc2[nH]cnc2C12CCN(C(=O)c1ccccc1)CC2 data_value=-1.52
molecule="CC(=O)Nc1cccc(CN2CCCC2C(=O)Nc2nccs2)c1 (stereo not drawn)" data_value=17.5
molecule="N#Cc1cccc(CN2CC3(CCCCN3c3cccnc3)CC2=O)c1 (stereo not drawn)" data_value=-1.1
molecule=CN1CCC(Cc2cc(Nc3ccccn3)ncn2)CC1 data_value=10.1
molecule="O=C(NCCc1cc(F)ccc1F)NCC(O)C1CC1 (stereo not drawn)" data_value=11.6
molecule=CC1=C[C@@H](CN2CCOCC2)[C@H](C(C)C)C[C@H]1Cc1nnc(C)o1 data_value=-5.39
molecule=O=C(NS(=O)(=O)c1c(Cl)cccc1Cl)c1cccc2c1OCCO2 data_value=-103
molecule="CC1CN(Cc2noc(C3CC3)n2)CCN1Cc1nccn1C (stereo not drawn)" data_value=4.66
molecule=CCSCCC(=O)NS(=O)(=O)c1ccc2c(c1)OCCO2 data_value=-13.7
molecule=Cn1cc(C(=O)Nc2ccc(CN3CCOCC3)cn2)cn1 data_value=-4.82
molecule=COc1ccc(C(=O)NCCNC(=O)c2scnc2Cl)cc1 data_value=-2.78

The measured values listed here are drawn from ChEMBL document CHEMBL3507680.
